Reference source for all entries: the supplement of paper PMC11061612

- Test system: LB831-BLC (Bladder Carcinoma)
- Test: combination Emax (second highest fraction inhibited in the dose matrix, 72 h); higher = more inhibition; extreme values may be limits of the assay
The entries below come with measured combination Emax values attached.
Just the number, please, no unit attached.

{"columns": ["Compound", "combination Emax"],
 "data": [
  ["Cc1c2c(nn1C)CSCc1cc(n(C)n1)CSc1cc(c3ccccc3c1)OCCCc1c(C(=O)O)n(C)c3c-2c(Cl)ccc13 [AZD5991] + Cn1cnc2c(F)c(Nc3ccc(Br)cc3Cl)c(C(=O)NOCCO)cc21 [Selumetinib] (first compound max 1 µM, 7x7, partner max 3 µM)", 0.392]
]}

Recorded combination Emax for Cc1c2c(nn1C)CSCc1cc(n(C)n1)CSc1cc(c3ccccc3c1)OCCCc1c(C(=O)O)n(C)c3c-2c(Cl)ccc13 [AZD5991] + CS(=O)(=O)CCNCc1ccc(-c2ccc3ncnc(Nc4ccc(OCc5cccc(F)c5)c(Cl)c4)c3c2)o1 [Lapatinib] (first compound max 1 µM, 7x7, partner max 10 µM) , please?
0.55

Recorded combination Emax for C[C@@H](Nc1cc(F)cc(F)c1)c1cc(C(=O)N(C)C)cc2c(=O)cc(N3CCOCC3)oc12 [AZD8186] + CC(=O)c1c(C)c2cnc(Nc3ccc(N4CCNCC4)cn3)nc2n(C2CCCC2)c1=O [Palbociclib] (first compound max 10 µM, 7x7, partner max 10 µM) , please?
0.398

Recorded combination Emax for C[C@@H](Oc1cc(-c2cnn(C3CCNCC3)c2)cnc1N)c1c(Cl)ccc(F)c1Cl [Crizotinib] + Cn1cnc2c(F)c(Nc3ccc(Br)cc3Cl)c(C(=O)NOCCO)cc21 [Selumetinib] (first compound max 10 µM, 7x7, partner max 10 µM) , please?
0.55

Recorded combination Emax for Cc1c2c(nn1C)CSCc1cc(n(C)n1)CSc1cc(c3ccccc3c1)OCCCc1c(C(=O)O)n(C)c3c-2c(Cl)ccc13 [AZD5991] + C=CCn1c(=O)c2cnc(Nc3ccc(N4CCN(C)CC4)cc3)nc2n1-c1cccc(C(C)(C)O)n1 [AZD1775] (first compound max 1 µM, partner max 1 µM) , please?
0.519

Recorded combination Emax for C[C@@H]1COCCN1c1cc(C2([S@](C)(=N)=O)CC2)nc(-c2ccnc3[nH]ccc23)n1 [AZD6738] + C1CC(C1)(C(=O)[O-])C(=O)[O-].N.N.[Pt+2] [Carboplatin] (first compound max 10 µM, 7x7, partner max 10 µM) , please?
0.39

Recorded combination Emax for C[C@@H](Oc1cc(-c2cnn(C3CCNCC3)c2)cnc1N)c1c(Cl)ccc(F)c1Cl [Crizotinib] + CC1=C(C(=CC=C1)Cl)NC(=O)C2=CN=C(S2)NC3=CC(=NC(=N3)C)N4CCN(CC4)CCO [Dasatinib] (first compound max 10 µM, 7x7, partner max 2 µM) , please?
0.921

---

- Test system: KP-1N (Pancreatic Carcinoma);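 also: after 72 h of two-drug dosing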
- Test: Bliss excess, mean over the matrix (fraction); higher = more synergy
Measurement type: Bliss excess
Just the number, please, no unit attached.

For orientation, consider the following solved cases.
{"columns": ["Molecule", "Reading"],
 "data": [
  ["Cc1c2c(nn1C)CSCc1cc(n(C)n1)CSc1cc(c3ccccc3c1)OCCCc1c(C(=O)O)n(C)c3c-2c(Cl)ccc13 [AZD5991] + C1CN(CCC1(C(=O)N[C@@H](CCO)C2=CC=C(C=C2)Cl)N)C3=NC=NC4=C3C=CN4 [Capivasertib] (first compound max 1 µM, 7x7, partner max 3 µM)", 0.0154],
  ["COc1cc2ncnc(Nc3ccc(F)c(Cl)c3)c2cc1OCCCN1CCOCC1 [Gefitinib] + CC(C)n1c(=O)n(C)c2cnc3cc(F)c(-c4ccc(OCCCN5CCCCC5)nc4)cc3c21 [AZD1390] (first compound max 10 µM, 7x7, partner max 0.3 µM)", -0.0625],
  ["C=CCn1c(=O)c2cnc(Nc3ccc(N4CCN(C)CC4)cc3)nc2n1-c1cccc(C(C)(C)O)n1 [AZD1775] + O=C(c1cc(Cc2n[nH]c(=O)c3ccccc23)ccc1F)N1CCN(C(=O)C2CC2)CC1 [Olaparib] (first compound max 1 µM, partner max 10 µM)", -0.0239]
]}

Consider the additional molecule presented here.
Find Bliss excess (KP-1N (Pancreatic Carcinoma)) for the entry COc1cccc2c1C(=O)c1c(O)c3c(c(O)c1C2=O)C[C@@](O)(C(=O)CO)C[C@@H]3O[C@H]1C[C@H](N)[C@H](O)[C@H](C)O1 [Doxorubicin] + Cc1cc2ncnn2cc1Nc1ncc2c(n1)n(C1CCOCC1)c(=O)n2C [AZD7648] (first compound max 1 µM, 7x7, partner max 10 µM)
0.0574
